Recorded Dose.FC.CTG values for a group of compounds are listed next.
System: ENR+CD organoids
method description: Primary screen: ATP (CellTiter-Glo 3D, CTG) cell number/viability, 2.5-D 384-well ENR+CD organoids
condition set: primary screen, dose 0.08 uM
Give just the number in log2 fold change; leave the unit off.

compound="CN1CCc2cc3c(cc2[C@H]1[C@@H]1OC(=O)c2c1ccc1c2OCO1)OCO3 [(+)-Bicuculline]" units_of_measure="log2 fold change" experimental_value=0.318
compound=c1ccc(NCc2ccc(CNc3ccccn3)cc2)nc1 units_of_measure="log2 fold change" experimental_value=0.140
compound=CC(C)(C)c1nc(-c2cccc(NS(=O)(=O)c3c(F)cccc3F)c2F)c(-c2ccnc(N)n2)s1 units_of_measure="log2 fold change" experimental_value=−0.134

Q: # input compound: C[C@@H](O[C@H]1OCCN(Cc2n[nH]c(=O)[nH]2)[C@H]1c1ccc(F)cc1)c1cc(C(F)(F)F)cc(C(F)(F)F)c1 [Aprepitant] ; wanted: its Dose.FC.CTG
Ans: 0.313

Q: # input compound: CC(C)CCN1c2nc(Nc3cc(F)c(O)c(F)c3)ncc2N(C)C(=O)C1C (stereo not drawn) ; wanted: its Dose.FC.CTG
Ans: 0.186

Q: # input compound: `CN(C)C(=O)[C@H](O)[C@H](Cc1ccccc1)NC(=O)c1cc2cc(Cl)ccc2[nH]1` ; wanted: its Dose.FC.CTG
Ans: 0.031

Q: # input compound: CCCCNc1ncc(-c2ccc(CN3CCOCC3)cn2)c(NC2CCC(O)CC2)n1 (stereo not drawn) ; wanted: its Dose.FC.CTG
Ans: 0.265

Q: # input compound: `Cc1c(Cl)cccc1Nc1ccccc1C(=O)O` ; wanted: its Dose.FC.CTG
Ans: 0.196

Q: # input compound: `COc1ccc2cccc(CCNC(C)=O)c2c1` ; wanted: its Dose.FC.CTG
Ans: 0.106

###

System: ENR+CD organoids (ISC to Paneth cell differentiation)
method description: Primary screen: basal (non-stimulated) lysozyme secretion LYZ.NS, 2.5-D 384-well ENR+CD organoid differentiation
Assay type: cell-based, mouse
condition set: primary screen, standard z score, dose 0.40 uM
value kind: Z.LYZ.NS
Answer field: number only, no words.

compound="C[C@]12CC[C@@H]3c4ccc(O)cc4C[C@@H](CCCCCCCCC[S+]([O-])CCCC(F)(F)C(F)(F)F)[C@H]3[C@@H]1CC[C@@H]2O (stereo partly shown)" value_kind=Z.LYZ.NS experimental_value=−0.432

Q: # input compound: CC1C(=O)OC2C(O)C34C5CC(C(C)(C)C)C36C(OC(=O)C6O)OC4(C(=O)O5)C12O (stereo not shown) [Ginkgolide B] ; wanted: its Z.LYZ.NS
Ans: 0.950

Q: # input compound: CCOC(=O)C1=C(C)NC(C)=C(C(=O)OC)C1c1cccc(Cl)c1Cl (stereo not shown) ; wanted: its Z.LYZ.NS
Ans: −0.284

Q: # input compound: `CCOc1nc2cccc(C(=O)O)c2n1Cc1ccc(-c2ccccc2-c2nnn[nH]2)cc1` ; wanted: its Z.LYZ.NS
Ans: −0.128

###

Test system: ENR+CD organoids
method description: Primary screen: ATP (CellTiter-Glo 3D, CTG) cell number/viability, 2.5-D 384-well ENR+CD organoids;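 further: compounds given at plating and again on day 3 over a 6-day differentiation from ENR+CV stem-cell-enriched precursors, ATP measured on day 6, plate median as control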
condition set: primary screen, dose 2.00 uM, standard z score
Checkbox rule: Z.CTG lower than 0.03 = 1; Z.CTG not lower than 0.03 = 0.

molecule=Cc1cc(NC(=O)Nc2ccc(N(C)C)cc2)c2cc(F)cc(F)c2n1 class_name=0
molecule=CO[C@H]1C[C@@H]2CC[C@@H](C)[C@@](O)(O2)C(=O)C(=O)N2CCCC[C@H]2C(=O)O[C@H]([C@H](C)C[C@@H]2CC[C@@H](OP(C)(C)=O)[C@H](OC)C2)CC(=O)[C@H](C)/C=C(\C)[C@@H](O)[C@@H](OC)C(=O)[C@H](C)C[C@H](C)/C=C/C=C/C=C/1C class_name=0
molecule=O=C(NOCC1CC1)c1ccc(F)c(F)c1Nc1ccc(I)cc1Cl class_name=1
molecule=CC(C)[C@H](O)C(=O)N[C@@H](C)C(=O)N[C@@H]1C(=O)N(C)CCc2ccccc21 class_name=1
molecule=COc1cc(OC)c(NC(=O)Nc2cc(C)on2)cc1Cl class_name=0
molecule=COc1cc(Br)c(Nc2nc(-c3c(C)nc4ncccn34)cs2)c(Br)c1 class_name=1

Q: In plain terms, does CN1C(=O)C(Cc2c[nH]c3ccccc23)NC1=S (stereo not drawn) come in under 0.03 for Z.CTG?
Ans: 1

Q: In plain terms, does `O=C(NCc1cccc(O)c1)Nc1nc(-c2ccncc2)cs1` come in under 0.03 for Z.CTG?
Ans: 1

Q: In plain terms, does Nc1ncnc2c1c(-c1cccc(OCc3ccccc3)c1)cn2C1CC(CN2CCCC2)C1 (stereo not drawn) come in under 0.03 for Z.CTG?
Ans: 0
